# System: IL-1β release upon NLRP3 activation in peripheral blood mononuclear cells (PBMC)
# Assay method text: PBMC IC50 determination assay: inhibition of IL-1β release upon NLRP3 activation
# Format: cell-based
# Condition notes: PBMC, PBMC primed with LPS 3 h, compound 30 min, stimulated with ATP (5 mM) or nigericin (10 μM) 1 h; IL-1β by ELISA (Protocol A) or HTRF (Protocol B)
IC50 values by entry

Compound smiles: CC(C)c1nn(CC(=O)Nc2ncccn2)c(=O)c2sc(CN)cc12
Measured value: 10000 to 50000 nM

Please report IC50 for the following molecule: CC(C)c1nn(CC(=O)Nc2ncccn2)c(=O)c2sc(N)cc12
1000 to 3000 nM

Look up and report measured IC50 for this entry: C=C(C)c1nn(CC(=O)N[C@@H]2CCCN(C3CC3)C2)c(=O)c2ncn(C)c12
10000 to 50000 nM

Consider the molecule CC(C)c1nn(CC(=O)NC2CC3(COC3)C2)c(=O)c2cnc(C3CC3)cc12 and give its recorded IC50.
10000 to 50000 nM
